Biological target: T1, human TREM2 Fc fusion (entire TREM2 ECD; only one Fc arm fused to TREM2) (human, UniProt Q9NZC2 19-174)
T1 construct: also called huTREM2-Fc; recombinant hTREM2
T1 sequence: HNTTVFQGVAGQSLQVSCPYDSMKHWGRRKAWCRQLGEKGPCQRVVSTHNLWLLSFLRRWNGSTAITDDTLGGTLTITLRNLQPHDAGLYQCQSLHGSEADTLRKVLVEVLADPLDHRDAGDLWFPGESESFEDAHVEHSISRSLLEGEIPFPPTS
Assay: BLI, IgG, avid
measure: Kd (nM)
Give the number; nM is assumed, so skip it.

# annotated cases, reported Kd shown
INSERT INTO assay_data (binder, observed_result) VALUES
  ('AL2p-h50 (antibody, human IgG1, V domains shown, humanized, human IgG1; Fab and IgG formats under one id) VH: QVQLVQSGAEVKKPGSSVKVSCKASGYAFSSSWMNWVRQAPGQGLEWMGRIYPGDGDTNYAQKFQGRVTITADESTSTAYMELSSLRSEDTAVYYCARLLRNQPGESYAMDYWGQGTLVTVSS VL: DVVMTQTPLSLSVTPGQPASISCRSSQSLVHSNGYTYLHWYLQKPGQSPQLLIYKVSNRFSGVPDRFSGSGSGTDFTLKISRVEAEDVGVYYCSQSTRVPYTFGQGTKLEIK', 1.19),
  ('AL2p-15 (antibody, V domains shown, Fab and IgG formats under one id) VH: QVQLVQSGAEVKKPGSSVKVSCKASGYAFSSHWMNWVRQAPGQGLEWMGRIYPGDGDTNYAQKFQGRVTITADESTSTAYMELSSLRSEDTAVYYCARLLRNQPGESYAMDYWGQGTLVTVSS VL: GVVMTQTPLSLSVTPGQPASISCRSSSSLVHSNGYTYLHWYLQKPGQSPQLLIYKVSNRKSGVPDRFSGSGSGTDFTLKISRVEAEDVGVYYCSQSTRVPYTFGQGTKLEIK', 0.538);

Okay, next one:
Short answer for AL2p-28 (antibody, V domains shown, Fab and IgG formats under one id) VH: QVQLVQSGAEVKKPGSSVKVSCKASGYAFSSHWMNWVRQAPGQGLEWMGRIYPGVGDTNYAQKFQGRVTITADESTSTAYMELSSLRSEDTAVYYCARLLRNQPGESYAMDYWGQGTLVTVSS VL: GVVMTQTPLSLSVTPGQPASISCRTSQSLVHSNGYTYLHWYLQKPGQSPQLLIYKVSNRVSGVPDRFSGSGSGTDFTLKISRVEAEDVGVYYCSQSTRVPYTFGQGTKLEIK : Kd was 0.417
